Listed here are molecules together with their documented IC50.
tested-target: glucosylceramide synthase (GCS) (Canis lupus familiaris, UniProt A0A8I3MXG6)
Construct: Madin-Darby canine kidney (MDCK) cell homogenates (120 μg of protein) were incubated; endogenous in cells
Sequence (A0A8I3MXG6 1-394): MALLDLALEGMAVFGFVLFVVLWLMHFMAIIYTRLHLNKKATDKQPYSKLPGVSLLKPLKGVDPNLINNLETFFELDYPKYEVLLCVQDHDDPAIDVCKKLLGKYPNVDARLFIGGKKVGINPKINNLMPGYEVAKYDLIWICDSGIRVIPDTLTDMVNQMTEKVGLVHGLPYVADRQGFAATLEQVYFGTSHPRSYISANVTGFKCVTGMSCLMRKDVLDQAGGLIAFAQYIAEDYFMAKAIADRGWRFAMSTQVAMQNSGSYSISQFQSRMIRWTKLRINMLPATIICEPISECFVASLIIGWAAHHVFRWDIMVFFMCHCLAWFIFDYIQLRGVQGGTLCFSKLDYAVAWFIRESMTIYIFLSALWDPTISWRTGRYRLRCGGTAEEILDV
procedure-details: GCS activity, broken cell (MDCK cell homogenate) assay
Give just the numeric value; nM need not be written.

molecule	IC50 (nM)
O=C(CC1Cc2ccccc2C1)N[C@H](CN1CCCC1)[C@H](O)c1ccc2c(c1)OCCO2	27

# context switch: different molecule, same IC50
glucosylceramide synthase (GCS) (Canis lupus familiaris, UniProt A0A8I3MXG6) / IC50 / O=C(N[C@H](CN1CCCC1)[C@H](O)c1ccc2c(c1)OCCO2)C1CC1c1ccccc1 (stereo partly drawn) : value?
90
